# subjectOfTest: UniProt Q9HBX9
# assayNotes: hRXFP1 HEK293 cAMP assay (HTRF)
# condition: HEK293 cells stably expressing human RXFP1; 30 min at rt; intracellular cAMP by HTRF
Label TRUE when EC50 is strictly below 600 nM; otherwise label FALSE.

[in] Dear colleague, could you confirm whether EC50 of COc1ccc(N2CCCC(C(=O)NCCO)C2)cc1C(=O)Nc1c(C(=O)Nc2ccc(F)c(C(F)(F)F)c2)sc2cc(C(F)(F)F)ccc12 (single isomer, unassigned) [Example 231] falls below 600 nM? Thanks.
[out] FALSE

[in] Confirm or reject: EC50 of COc1ccc(-c2cnn(C)c2C(=O)O)cc1C(=O)Nc1c(C(=O)Nc2ccc(F)c(C(F)(F)F)c2)sc2cc(C(F)(F)F)ccc12 [Example 212] lies strictly below 600 nM
[out] FALSE

[in] Threshold test, EC50 < 600 nM: COc1ccc(-c2ccc(N3CCNCC3)nc2)cc1C(=O)Nc1c(C(=O)Nc2ccc(F)c(C(F)(F)F)c2)sc2cc(C(F)(F)F)ccc12 [Example 118]
[out] TRUE

[in] Lab note: EC50 threshold 600 nM. Does this compound come in strictly under it? COc1ccc(C2CCCN(C(=O)CO)C2)cc1C(=O)Nc1c(C(=O)Nc2ccc(F)c(C(F)(F)F)c2)sc2cc(C(F)(F)F)ccc12 (single isomer, unassigned) [Example 103]
[out] FALSE

[in] Does the reported EC50 of COc1ccc(C2=NC(C(=O)N3CC(C(C)(C)O)C3)CO2)cc1C(=O)Nc1c(C(=O)Nc2ccc(F)c(C(F)(F)F)c2)sc2cc(C(F)(F)F)ccc12 (stereo not drawn) [Example 281] stay below 600 nM?
[out] TRUE

###

# subjectOfTest: human RXFP1 (Homo sapiens, UniProt Q9HBX9)
# Sequence (Q9HBX9 whole entry): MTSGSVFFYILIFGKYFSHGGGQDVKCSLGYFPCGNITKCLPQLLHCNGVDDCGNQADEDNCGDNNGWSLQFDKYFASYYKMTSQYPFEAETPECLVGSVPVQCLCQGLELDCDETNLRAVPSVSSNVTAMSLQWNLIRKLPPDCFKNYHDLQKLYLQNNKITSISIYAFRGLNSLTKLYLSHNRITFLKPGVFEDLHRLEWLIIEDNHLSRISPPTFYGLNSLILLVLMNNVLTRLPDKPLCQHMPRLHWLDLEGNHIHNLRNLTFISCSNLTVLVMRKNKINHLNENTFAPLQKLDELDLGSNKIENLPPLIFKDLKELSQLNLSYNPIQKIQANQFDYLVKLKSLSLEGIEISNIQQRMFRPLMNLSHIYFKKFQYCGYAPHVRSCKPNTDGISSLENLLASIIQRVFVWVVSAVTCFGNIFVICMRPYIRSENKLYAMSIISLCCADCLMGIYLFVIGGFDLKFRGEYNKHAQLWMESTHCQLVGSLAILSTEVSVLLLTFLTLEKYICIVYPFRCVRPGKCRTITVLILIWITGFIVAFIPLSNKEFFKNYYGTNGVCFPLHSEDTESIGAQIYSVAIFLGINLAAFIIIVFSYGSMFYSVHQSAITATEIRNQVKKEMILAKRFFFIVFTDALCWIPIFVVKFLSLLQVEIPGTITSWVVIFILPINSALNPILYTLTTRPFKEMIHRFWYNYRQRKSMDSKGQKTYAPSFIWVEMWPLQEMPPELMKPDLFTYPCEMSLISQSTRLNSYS
# assayNotes: hRXFP1 HEK293 cAMP assay (HTRF)
# condition: HEK293 cells stably expressing human RXFP1; 30 min at rt; intracellular cAMP by HTRF
Assignment: determine reported log10 EC50 for the given compounds.
Recorded EC50 (log10, nM)

Sample `COc1cc(C)c(C(=O)N2CC3(C2)CS(=O)(=O)C3)cc1C(=O)Nc1c(C(=O)Nc2ccc(F)c(C(F)(F)F)c2)sc2cc(C(F)(F)F)ccc12` ; log10 EC50 observed: 3.25

Record summary for `COc1ccc(C2=NOC3(CCNCC3)C2)cc1C(=O)Nc1c(C(=O)Nc2ccc(F)c(C(F)(F)F)c2)sc2cc(C(F)(F)F)ccc12` : reported log10 EC50 = 2.95

Entry COc1ccc(N2CCOC(CC(C)(C)O)C2)cc1C(=O)Nc1c(C(=O)Nc2ccc(F)c(C(F)(F)F)c2)sc2cc(C(F)(F)F)ccc12 (single isomer, unassigned) [Example 228] , log10 EC50 reported as 3.19

# log10 EC50 (compound: COc1ccc(N2CCCC(NCC(N)=O)C2)cc1C(=O)Nc1c(C(=O)Nc2ccc(F)c(C(F)(F)F)c2)sc2cc(C(F)(F)F)ccc12 (stereo in doubt) [Example 112] ) is 2.77

The compound `COc1ccc(C(=O)NCC(C)(C)O)cc1C(=O)Nc1c(C(=O)Nc2ccc(F)c(C(F)(F)F)c2)sc2cc(C(F)(F)F)ccc12` showed log10 EC50 equal to 3.58

Documented log10 EC50 of `COc1ccc(C(=O)N2CCO[C@@H](CO)C2)cc1C(=O)Nc1c(C(=O)Nc2ccc(F)c(C(F)(F)F)c2)sc2cc(C(F)(F)F)ccc12` : 2.65

GET /value?item= COc1ccc(C2CCCN(CC(O)CO)C2)cc1C(=O)Nc1c(C(=O)Nc2ccc(F)c(C(F)(F)F)c2)sc2cc(C(F)(F)F)ccc12 (stereo not drawn) [Example 102] &field=log10 EC50 returns 3.35

Please fill in: log10 EC50 reported for `COc1ccc(C(=O)NCCCO)cc1C(=O)Nc1c(C(=O)Nc2ccc(F)c(C(F)(F)F)c2)sc2cc(C(F)(F)F)ccc12` = 3.54

For record COc1ccc(N2CCCC(C(=O)NCC(C)(C)O)C2)cc1C(=O)Nc1c(C(=O)Nc2ccc(F)c(C(F)(F)F)c2)sc2cc(C(F)(F)F)ccc12 (single isomer, unassigned) [Example 8] the listed log10 EC50 is 3.31

# compound COc1ccc(C2CC2C(=O)N2CC(S(C)(=O)=O)C2)cc1C(=O)Nc1c(C(=O)Nc2ccc(F)c(C(F)(F)F)c2)sc2cc(C(F)(F)F)ccc12 (single isomer, unassigned) [Example 168] ; its log10 EC50 = 2.25

Short answer for `COc1ccc(CNC(C)(C)CO)cc1C(=O)Nc1c(C(=O)Nc2ccc(F)c(C(F)(F)F)c2)sc2cc(C(F)(F)F)ccc12` : log10 EC50 was 3.18

Form: compound = CNC(=O)CN1CCCC(c2ccc(OC)c(C(=O)Nc3c(C(=O)Nc4ccc(F)c(C(F)(F)F)c4)sc4cc(C(F)(F)F)ccc34)c2)C1 (stereo not drawn) [Example 78] ; log10 EC50 = 2.92
